Biological target: Influenza virus A/California/7/2009pdm (H1N1pdm) (Influenza A virus A/California/7/2009pdm (H1N1pdm))
Experiment: ELISA on coated viral particles
Label fulfilled when Binding activity (absorbance at 492 nm) < 2; otherwise not fulfilled.

INSERT INTO measurements (binder, class_label) VALUES
  ('Group 48 representative clone F083-389, Fab-cp3-type antibody (Fab, V domains shown) VH: QVQLVQSGAEVKKPGSSVKVSCKASGDIFNKFAITWVRQAPGQGLEWMGGITALFATTSYAQKFQDRVTINWDESTTTAFMELSSLRFEDTAVYYCARGPNYYETYLDNWGQGTLVTVSS VL: EIVLTQSPTILSASVGDRVTITCRASQSISKWLAWYQQKPGKVPKLLIYMASTLESGVPSRFSGSGSGSEFTLTISSLQPGDFATYYCQQYNSYPRTFGQGTKVEINV', 'not fulfilled'),
  ('Group 43 representative clone F081-007, Fab-cp3-type antibody (Fab, V domains shown) VH: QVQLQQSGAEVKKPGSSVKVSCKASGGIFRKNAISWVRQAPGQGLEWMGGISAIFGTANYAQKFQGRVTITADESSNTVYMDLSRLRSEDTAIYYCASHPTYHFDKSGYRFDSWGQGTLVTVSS VL: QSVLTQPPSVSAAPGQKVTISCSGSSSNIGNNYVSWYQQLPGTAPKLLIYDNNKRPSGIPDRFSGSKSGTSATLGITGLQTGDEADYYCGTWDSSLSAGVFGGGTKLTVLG', 'not fulfilled'),
  ('Group 44 representative clone F081-008, Fab-cp3-type antibody (Fab, V domains shown) VH: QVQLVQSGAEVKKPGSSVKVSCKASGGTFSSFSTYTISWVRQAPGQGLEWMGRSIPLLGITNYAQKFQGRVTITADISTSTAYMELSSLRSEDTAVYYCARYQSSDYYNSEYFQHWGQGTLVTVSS VL: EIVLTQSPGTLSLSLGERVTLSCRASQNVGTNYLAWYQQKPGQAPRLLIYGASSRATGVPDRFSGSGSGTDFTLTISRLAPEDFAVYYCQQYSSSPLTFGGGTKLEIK', 'fulfilled'),
  ('Group 37 representative clone F083-311, Fab-cp3-type antibody (Fab, V domains shown) VH: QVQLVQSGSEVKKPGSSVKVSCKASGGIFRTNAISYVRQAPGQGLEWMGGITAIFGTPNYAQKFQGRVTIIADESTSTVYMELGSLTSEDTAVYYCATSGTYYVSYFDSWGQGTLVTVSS VL: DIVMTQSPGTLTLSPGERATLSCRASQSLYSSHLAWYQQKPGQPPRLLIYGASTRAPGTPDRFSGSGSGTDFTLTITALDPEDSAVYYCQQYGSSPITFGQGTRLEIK', 'fulfilled'),
  ('Group 42 representative clone F083-249, Fab-cp3-type antibody (Fab, V domains shown) VH: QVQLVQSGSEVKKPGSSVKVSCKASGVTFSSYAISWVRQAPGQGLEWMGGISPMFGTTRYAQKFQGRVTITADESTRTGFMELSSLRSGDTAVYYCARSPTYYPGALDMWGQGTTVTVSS VL: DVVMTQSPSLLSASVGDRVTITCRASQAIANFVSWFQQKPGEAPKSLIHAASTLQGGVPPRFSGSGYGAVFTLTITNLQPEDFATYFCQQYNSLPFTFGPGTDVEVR', 'not fulfilled');
